assay: Pharmacokinetic evaluation of QC-199 in mouse plasma and brain, IP or oral; type: in vivo; settings: male, CD-1, mouse, in vivo; plasma, IP 60 mg/kg; read-out: AUCall (0-12)

- line notation: "Brc1ccc(CCCCn2ccnc2)cc1.Cl"
  unit of measure: "ng·h/mL"
  AUC: 72000

###

Reported values of IC50 for individual entries
Biological target: HO-2 (rat brain) (Rattus norvegicus)
Construct: brain microsomes were used as a source of HO-2; from tissue; host or cells: brain microsomal fraction of adult male Sprague-Dawley rats
Sequence (P23711 whole entry): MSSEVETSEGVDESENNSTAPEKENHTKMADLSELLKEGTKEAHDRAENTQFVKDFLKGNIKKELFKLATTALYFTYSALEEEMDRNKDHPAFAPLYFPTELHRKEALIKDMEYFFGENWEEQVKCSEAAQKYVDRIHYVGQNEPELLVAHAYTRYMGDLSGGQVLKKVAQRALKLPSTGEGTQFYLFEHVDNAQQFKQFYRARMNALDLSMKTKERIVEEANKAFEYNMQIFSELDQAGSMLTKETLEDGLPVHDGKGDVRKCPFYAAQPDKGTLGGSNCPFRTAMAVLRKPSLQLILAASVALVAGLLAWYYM
Assay: HO enzymatic activity in rat brain microsomal fraction (CO formed from methemalbumin, gas chromatography)
Assay type: biochemical
Details: rat brain microsomes; average ± standard deviation of replicate experiments; read-out: IC50 HO-2 (rat brain)/μM
Protocol: Incubations for HO activity analysis were done under conditions for which the rate of CO formation (pmol CO×min^−1×mg protein^−1) was linear with respect to time and microsomal protein concentration. […] The values on the abscissa represent the decimal logarithm of the inhibitor's concentration (in μM), whereas the values of the activity on the ordinate are expressed as a percentage of the control experiments without inhibitor. […]
Structures can show the parent of a compound that is named as a salt.

- compound: "Clc1ccc(CC[C@@]2(Cn3ccnc3)OC[C@@H](CSc3ccc(Cl)cc3)O2)cc1 [hydrochloride]"
  unit of measure: "µM"
  reading qualifier: "="
  IC50: 12
- compound: "O=C(CCc1ccc([N+](=O)[O-])cc1)Cn1ccnc1 [hydrochloride]"
  unit of measure: "µM"
  reading qualifier: "="
  IC50: 6.2
- compound: "c1ccc(CCC2(Cn3cncn3)OCCO2)cc1 [hydrochloride]"
  unit of measure: "µM"
  reading qualifier: ">"
  IC50: 100
- compound: "c1ccc(OCCCCn2ccnc2)cc1 [hydrochloride]"
  unit of measure: "µM"
  reading qualifier: "="
  IC50: 4.6
- compound: "Oc1ccc(SC[C@@H]2CO[C@@](CCc3ccc(Cl)cc3)(Cn3ccnc3)O2)cc1"
  unit of measure: "µM"
  reading qualifier: "="
  IC50: 7

###

Reported values of IC50 for individual entries
target: HO-1 (rat spleen) (Rattus norvegicus, UniProt P06762); construct: Spleen microsomes were used as a source of HO-1; from tissue; host or cells: spleen microsomal fraction of adult male Sprague-Dawley rats; assay: HO enzymatic activity in rat spleen microsomal fraction (CO formed from methemalbumin, gas chromatography); assay type: biochemical; settings: rat spleen microsomes; average ± standard deviation of replicate experiments; read-out: IC50 HO-1 (rat spleen)/μM
Sequence (P06762 whole entry): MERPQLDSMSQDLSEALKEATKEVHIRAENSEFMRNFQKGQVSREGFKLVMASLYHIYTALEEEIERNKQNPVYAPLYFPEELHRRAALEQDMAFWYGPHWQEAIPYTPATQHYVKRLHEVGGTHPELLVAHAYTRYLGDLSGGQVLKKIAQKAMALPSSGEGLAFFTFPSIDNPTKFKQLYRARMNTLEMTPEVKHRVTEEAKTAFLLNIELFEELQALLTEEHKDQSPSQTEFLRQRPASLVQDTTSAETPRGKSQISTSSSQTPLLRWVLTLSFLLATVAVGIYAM
Structures can show the parent of a compound that is named as a salt.
experimental endpoint: IC50 (µM)

- molecule: "OC(Cn1ccnc1)c1ccc(-c2ccc(Br)cc2)cc1 (racemic) [drawing 342]"
  target: "HO-1 (rat spleen) (Rattus norvegicus, UniProt P06762)"
  experimental endpoint: "IC50"
  reading qualifier: "="
  val: 0.06
- molecule: "O=C(CCc1ccccc1)Cn1cnc(Cl)c1Cl [hydrochloride]"
  target: "HO-1 (rat spleen) (Rattus norvegicus, UniProt P06762)"
  experimental endpoint: "IC50"
  reading qualifier: ">"
  val: 100
- molecule: "c1ccc(-n2ccnc2)cc1 [1-Phenyl-1H-imidazole hydrochloride]"
  target: "HO-1 (rat spleen) (Rattus norvegicus, UniProt P06762)"
  experimental endpoint: "IC50"
  reading qualifier: ">"
  val: 100
- molecule: "CCC(=O)Cn1ccnc1 [hydrochloride]"
  target: "HO-1 (rat spleen) (Rattus norvegicus, UniProt P06762)"
  experimental endpoint: "IC50"
  reading qualifier: ">"
  val: 100
- molecule: "c1ccc(CCC2(Cn3nccn3)OCCO2)cc1"
  target: "HO-1 (rat spleen) (Rattus norvegicus, UniProt P06762)"
  experimental endpoint: "IC50"
  reading qualifier: ">"
  val: 100
- molecule: "O=C(CCc1ccccc1)Cn1ccnc1-c1ccccc1 [hydrochloride]"
  target: "HO-1 (rat spleen) (Rattus norvegicus, UniProt P06762)"
  experimental endpoint: "IC50"
  reading qualifier: ">"
  val: 100
- molecule: "O=C(Cn1ccnc1)c1ccc(F)cc1 [hydrochloride]"
  target: "HO-1 (rat spleen) (Rattus norvegicus, UniProt P06762)"
  experimental endpoint: "IC50"
  reading qualifier: "="
  val: 2.1
- molecule: "Clc1ccc(CC[C@@]2(Cn3ccnc3)OCC(COc3ccc(C45CC6CC(CC(C6)C4)C5)cc3)O2)cc1 (stereo in doubt) [hydrochloride]"
  target: "HO-1 (rat spleen) (Rattus norvegicus, UniProt P06762)"
  experimental endpoint: "IC50"
  reading qualifier: ">"
  val: 100
- molecule: "Clc1ccc(CC[C@@]2(Cn3ccnc3)OCC(COc3ccc(I)cc3)O2)cc1 (stereo in doubt) [hydrochloride]"
  target: "HO-1 (rat spleen) (Rattus norvegicus, UniProt P06762)"
  experimental endpoint: "IC50"
  reading qualifier: "="
  val: 9
- molecule: "Clc1ccc(CC[C@@]2(Cn3ccnc3)OCC(COc3ccccc3)O2)cc1 (stereo in doubt) [hydrochloride]"
  target: "HO-1 (rat spleen) (Rattus norvegicus, UniProt P06762)"
  experimental endpoint: "IC50"
  reading qualifier: "="
  val: 0.59
- molecule: "O=C(Cn1ccnc1)c1ccc(-c2ccc(Br)cc2)cc1"
  target: "HO-1 (rat spleen) (Rattus norvegicus, UniProt P06762)"
  experimental endpoint: "IC50"
  reading qualifier: "="
  val: 1.5
- molecule: "Cc1ccc(CCC(=O)Cn2ccnc2)cc1 [hydrochloride]"
  target: "HO-1 (rat spleen) (Rattus norvegicus, UniProt P06762)"
  experimental endpoint: "IC50"
  reading qualifier: "="
  val: 0.76
- molecule: "O/N=C(\\Cn1ccnc1)c1ccc(Cl)cc1"
  target: "HO-1 (rat spleen) (Rattus norvegicus, UniProt P06762)"
  experimental endpoint: "IC50"
  reading qualifier: "="
  val: 46
- molecule: "c1ccc(CCC2(Cn3cncn3)OCCO2)cc1 [hydrochloride]"
  target: "HO-1 (rat spleen) (Rattus norvegicus, UniProt P06762)"
  experimental endpoint: "IC50"
  reading qualifier: "="
  val: 13
- molecule: "Clc1ccc(CC[C@@]2(Cn3ccnc3)OC[C@@H](CSc3cccc(Br)c3)O2)cc1 [hydrochloride]"
  target: "HO-1 (rat spleen) (Rattus norvegicus, UniProt P06762)"
  experimental endpoint: "IC50"
  reading qualifier: "="
  val: 5
- molecule: "c1cn(CC23CC4CC(CC(C4)C2)C3)cn1 [hydrochloride]"
  target: "HO-1 (rat spleen) (Rattus norvegicus, UniProt P06762)"
  experimental endpoint: "IC50"
  reading qualifier: "="
  val: 2.2
- molecule: "CSc1ncn(CC(=O)CCc2ccccc2)n1"
  target: "HO-1 (rat spleen) (Rattus norvegicus, UniProt P06762)"
  experimental endpoint: "IC50"
  reading qualifier: ">"
  val: 100
- molecule: "C[C@H]1CO[C@@](CCc2ccc(Cl)cc2)(Cn2ccnc2)O1 [hydrochloride]"
  target: "HO-1 (rat spleen) (Rattus norvegicus, UniProt P06762)"
  experimental endpoint: "IC50"
  reading qualifier: "="
  val: 2.6
- molecule: "c1ccc2cc(C3(Cn4cncn4)OCCO3)ccc2c1"
  target: "HO-1 (rat spleen) (Rattus norvegicus, UniProt P06762)"
  experimental endpoint: "IC50"
  reading qualifier: "="
  val: 3.58
- molecule: "Clc1ccc(CCC2(Cn3ccnc3)OCCO2)cc1 [hydrochloride]"
  target: "HO-1 (rat spleen) (Rattus norvegicus, UniProt P06762)"
  experimental endpoint: "IC50"
  reading qualifier: "="
  val: 4

The origin of these recorded values is patent US20140155445A1.
